Catalogue of compounds with associated z-score
- EXPERIMENTAL PROTOCOL: growth modulation of vineyard yeast isolate – strain RM11-1a, OD600, basal, 24 h, primary screen (AID 1177);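 further: cultures grown under basal conditions with no added stressor; test concentration not given here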
- MEASUREMENT CONDITIONS: S. cerevisiae RM11-1a growth, OD600, 24 h; higher = more signal, called active from +8 up or from −8 down

{"COMPOUND": "COC(=O)C1=CC(CCCO)=CC(c2cccs2)N(Cc2cccc(OC(F)(F)F)c2)C=C1C(=O)OC (stereo not given)", "z-score": 0.0036}
{"COMPOUND": "CN1C2C=C(CCCO)C(C3C(=O)N(C(N)=O)C(=O)C32)C1C1CC1 (stereo not given)", "z-score": -0.18}
{"COMPOUND": "CCCCC(CC)C(O)C1C=CC2C(=O)N(c3ccccc3)C(=O)C2N1Nc1ccccc1F (stereo not given)", "z-score": 0.732}
{"COMPOUND": "C[N+](C)(C)CCCC[C@@H]1NC(=O)[C@@H]2C[C@H](C(=O)NCCCCCCN)[C@H](c3cccc(OCCO)c3)N2C1=O", "z-score": -0.0966}
{"COMPOUND": "NCCCCCNC(=O)[C@H]1C[C@H]2C(=O)N3CCC[C@H]3C(=O)N2[C@H]1c1cccc(OCCO)c1", "z-score": -0.132}
